Target: T1, Dimeric fibrinogen-like domain of human Ang-2 conjugated to human IgG1 (human)
T1 construct: also called Dimeric Human Ang-2FD; Human Ang-2FD-hFc
T1 sequence (chain, as listed by the source limits assumed): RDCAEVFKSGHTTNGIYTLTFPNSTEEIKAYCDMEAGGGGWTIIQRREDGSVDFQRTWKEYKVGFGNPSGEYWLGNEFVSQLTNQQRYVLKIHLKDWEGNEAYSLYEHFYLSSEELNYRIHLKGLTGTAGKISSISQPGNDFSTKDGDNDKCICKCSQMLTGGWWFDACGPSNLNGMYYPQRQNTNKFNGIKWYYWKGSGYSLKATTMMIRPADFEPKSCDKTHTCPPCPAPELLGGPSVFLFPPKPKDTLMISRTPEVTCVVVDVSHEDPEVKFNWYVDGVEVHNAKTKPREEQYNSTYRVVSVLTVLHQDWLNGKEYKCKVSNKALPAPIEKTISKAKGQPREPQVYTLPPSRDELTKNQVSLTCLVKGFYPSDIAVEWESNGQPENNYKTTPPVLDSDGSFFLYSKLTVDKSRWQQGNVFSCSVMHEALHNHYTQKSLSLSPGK
Assay: SPR, hIgG1 antibody captured, room temp
Text: Antibody was captured on a goat anti-mouse IgG polyclonal antibody surface, a goat anti-human κ polyclonal antibody (Southern Biotech, Birmingham, Ala.) surface or a goat anti-human IgG polyclonal antibody (Jackson Immuno Research Lab, West Grove, Pa.) surface created through direct amine coupling to a BIACORE™ CM5 sensor chip to form a captured antibody surface. […] Antigen-antibody binding and dissociation were monitored in real time at room temperature. […]
Each entry below carries its reported Kd.
Please reply with the bare figure in nM and do not write the unit itself.

For orientation, consider the following solved cases.
| binder | Kd / nM |
| --- | --- |
| H1H730N (antibody, V domains shown) VH: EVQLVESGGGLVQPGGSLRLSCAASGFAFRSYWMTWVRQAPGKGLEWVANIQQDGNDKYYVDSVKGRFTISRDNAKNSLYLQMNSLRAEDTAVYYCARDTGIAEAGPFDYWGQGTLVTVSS VL: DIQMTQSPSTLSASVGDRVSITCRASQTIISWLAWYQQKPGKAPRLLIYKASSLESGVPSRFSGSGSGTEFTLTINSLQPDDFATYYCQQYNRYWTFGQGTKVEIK | 0.234 |
| H1H704P (antibody, V domains shown) VH: QVQLVESGGDVVQPGRSLRLSCAASGFTFSSYGMHWVRQAPGKGLEWVAIIWYDGSNKYYADSVKGRFTISRDNSKNTLYLQMNSLRVEDTAVYSCARDFSISSRHFDYWGQGTLVTVSS VL: DIQMTQSPSSLSASVGDRVTITCRASQAINNYLAWFQQKPGKAPKSLIYATSNLQSGVPSQFSGSGSGTDYTLTISSLQPEDFATYYCQQYYIYPITFGQGTRLEIK | 0.331 |
| H1H691P (antibody, V domains shown) VH: EVQLVESGGGLVQPGRSLRLSCAASGFTFDDYAMHWVRQAPGKGLEWVSGISWNSGDIGYADSVKGRFTISRDNAKNSLYLQMNSLRAQDTALYYCAKAYGDYYYFYGMDVWGQGTTVTVS VL: EIVLTQSPGTLSLSPGERATLSCRASQSVSSSYLAWYQQKPGQAPRLLIFSASSRATGIPDRFSGSGSGTDFTLTISRLEPEDFAVYYCQQYDNSLTFGGGTKVEIK | 0.22 |

Exam item: Tell me the measured Kd of H1H724N (antibody, V domains shown) VH: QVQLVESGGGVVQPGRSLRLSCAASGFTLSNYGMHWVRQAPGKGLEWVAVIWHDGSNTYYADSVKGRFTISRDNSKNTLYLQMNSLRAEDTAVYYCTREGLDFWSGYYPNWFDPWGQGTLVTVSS VL: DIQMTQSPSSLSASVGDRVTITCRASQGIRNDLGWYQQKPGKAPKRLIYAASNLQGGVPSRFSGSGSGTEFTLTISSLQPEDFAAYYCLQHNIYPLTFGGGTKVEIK , please.
Marked response: 0.115

Reference for the values: patent US20150147342A1
